Give measured CRF2R EC50 for each item. Keep answers brief.
Target: T1, corticotropin releasing factor 2 receptor
T1 sequence (Q13324 whole entry, species assumed, looked up): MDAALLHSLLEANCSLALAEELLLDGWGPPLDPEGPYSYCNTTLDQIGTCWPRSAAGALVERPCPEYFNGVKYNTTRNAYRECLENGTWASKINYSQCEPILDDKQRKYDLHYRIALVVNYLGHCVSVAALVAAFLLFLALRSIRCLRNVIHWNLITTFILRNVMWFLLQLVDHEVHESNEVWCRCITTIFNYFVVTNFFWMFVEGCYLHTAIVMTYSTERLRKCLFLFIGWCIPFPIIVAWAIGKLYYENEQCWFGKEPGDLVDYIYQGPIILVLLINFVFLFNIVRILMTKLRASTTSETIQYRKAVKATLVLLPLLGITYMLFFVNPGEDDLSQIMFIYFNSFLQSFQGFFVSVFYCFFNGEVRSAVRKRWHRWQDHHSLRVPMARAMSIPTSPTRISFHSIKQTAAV
Experiment: cell-based or functional assay
Ends that are not written are not given here.
// note: answer is a bare numeric in nM

Query block: # query: CRF2R EC50 of entry ZGPPISIDLPFQLLRKVIEIEKQEKEKQQAANNARLLDTI (C-terminal amide) [SEQ ID NO 278]
Result block: 19.6

Query block: Can you handle ZGPPISIDLPTWLLRKVIEIEKQEKEKQQAANNRLLLDTI (C-terminal amide) [SEQ ID NO 284] next?
Result block: 100

Query block: Can you handle DNPSLSIDLPLLLLRTLLELEKTQSQRERAEQNANIFANV-NH2 [SEQ ID NO 326] next?
Result block: 33.7

The reported measurements were obtained from patent US20030148956A1.
